Examples of binders with documented Max MFI follow.
target-system: T1, human CDH6 on tumor cells (OVCAR3 cells, PA-1 cells) (human, UniProt P55285 54-790)
T1 sequence: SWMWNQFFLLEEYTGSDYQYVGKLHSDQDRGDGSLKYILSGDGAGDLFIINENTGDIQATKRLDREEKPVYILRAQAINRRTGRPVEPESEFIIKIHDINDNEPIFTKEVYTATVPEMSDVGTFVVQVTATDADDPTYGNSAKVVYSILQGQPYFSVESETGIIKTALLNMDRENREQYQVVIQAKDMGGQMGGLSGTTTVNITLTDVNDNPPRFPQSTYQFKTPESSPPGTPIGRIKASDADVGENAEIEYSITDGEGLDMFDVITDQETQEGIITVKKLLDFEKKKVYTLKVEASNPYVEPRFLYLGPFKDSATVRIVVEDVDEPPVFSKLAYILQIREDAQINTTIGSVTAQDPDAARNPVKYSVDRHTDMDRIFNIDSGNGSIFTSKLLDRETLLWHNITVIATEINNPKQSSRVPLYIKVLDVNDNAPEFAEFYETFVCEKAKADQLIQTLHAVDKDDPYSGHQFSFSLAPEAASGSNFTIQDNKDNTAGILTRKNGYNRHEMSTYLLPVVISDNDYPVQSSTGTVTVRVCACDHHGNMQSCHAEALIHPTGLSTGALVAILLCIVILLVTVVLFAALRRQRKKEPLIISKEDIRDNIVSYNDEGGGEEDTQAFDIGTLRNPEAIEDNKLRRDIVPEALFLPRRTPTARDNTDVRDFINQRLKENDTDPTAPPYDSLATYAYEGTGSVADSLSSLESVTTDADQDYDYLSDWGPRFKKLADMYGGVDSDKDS
assay-summary: FACS, PA-1 cells
Give just the numeric value; MFI need not be written.

Example results:
- binder: "CHI-CDH6-14 (antibody, human IgG1, kappa, V domains shown, also called CHI-hCDH6-14; CH1-CDH6-14) VH: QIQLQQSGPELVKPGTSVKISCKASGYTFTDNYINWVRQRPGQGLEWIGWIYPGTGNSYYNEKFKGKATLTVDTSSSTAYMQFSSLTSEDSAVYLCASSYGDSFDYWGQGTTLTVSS VL: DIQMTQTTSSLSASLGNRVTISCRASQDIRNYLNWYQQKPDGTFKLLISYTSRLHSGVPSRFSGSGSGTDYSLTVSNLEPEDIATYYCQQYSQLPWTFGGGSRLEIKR"
  value-unit: "MFI"
  observed-measurement: 4260
- binder: "hCDH6-14-H2L1 (antibody, V domains shown, Humanized) VH: EIQLVQSGAEVKKPGASVKVSCKASGYTFTDNYINWVRQAPGQRLEWMGWIYPGTGNSYYNEKFKGRVTITVDTSASTAYMELSSLRSEDTAVYYCASSYGDSFDYWGQGTTVTVSS VL: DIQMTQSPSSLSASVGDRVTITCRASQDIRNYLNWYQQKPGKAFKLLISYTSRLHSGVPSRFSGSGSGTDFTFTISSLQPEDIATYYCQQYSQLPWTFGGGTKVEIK"
  value-unit: "MFI"
  observed-measurement: 3560

Q: // returns reported Max MFI for input hCDH6-14-H3L3 (antibody, V domains shown, Humanized) VH: EIQLVQSGAEVKKPGASVKVSCKASGYTFTDNYINWVRQAPGQRLEWMGWIYPGTGNSYYNEKFKGRVTLTVDTSASTAYMELSSLRSEDTAVYYCASSYGDSFDYWGQGTTVTVSS VL: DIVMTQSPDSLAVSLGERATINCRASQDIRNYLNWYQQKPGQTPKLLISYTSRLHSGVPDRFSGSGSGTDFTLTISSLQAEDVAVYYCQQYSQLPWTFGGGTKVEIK
Ans: 3470
